protocol-notes: Size and polydispersity index (PDI) of the lipid nanoparticle by dynamic light scattering
Format: physicochemical
test-conditions: LNP encapsulating eGFP mRNA, ionizable lipid/DOPE/cholesterol/DMG-PEG2000 50/10/48.25/1.25 mol%, N/P 12; in nm (unit assumed)
attribute-measured: Particle size
Please reply with the value in numeric form only.

Answered cases to consult:
{"columns": ["compound", "Particle size"],
 "data": [
  ["CCCCCCCCCCCCOC(=O)CCCCCCN(CCCCO)CCCN(CCCCCCC(=O)OCCCCCCCCCCCC)CCCCCCC(=O)OCCCCCCCCCCCC", 74.58],
  ["CCCCCCCCCCCOC(=O)CCCCCCCN(CCCCO)CCCN(CCCCCCCC(=O)OCCCCCCCCCCC)CCCCCCCC(=O)OCCCCCCCCCCC", 89.98],
  ["CCCCCCCCCCCCOC(=O)CCCCCCCN(CCO)CCCN(CCCCCCCC(=O)OCCCCCCCCCCCC)CCCCCCCC(=O)OCCCCCCCCCCCC", 76.74],
  ["CCCCCCCCCCCCCOC(=O)CCCN(CCCCO)CCCN(CCCC(=O)OCCCCCCCCCCCCC)CCCC(=O)OCCCCCCCCCCCCC", 90.10],
  ["CCCCCCCCCCCCCOC(=O)CCCN(CCCO)CCCN(CCCC(=O)OCCCCCCCCCCCCC)CCCC(=O)OCCCCCCCCCCCCC", 84.74],
  ["CCCCCCCCCCCCOC(=O)CCCCCCN(CCO)CCCN(CCCCCCC(=O)OCCCCCCCCCCCC)CCCCCCC(=O)OCCCCCCCCCCCC", 83.85]
]}

Kindly note the recorded Particle size for CCCCC/C=C\C/C=C\CCCCCCCCOC(=O)CCCN(CCCO)CCCN(CCCC(=O)OCCCCCCCC/C=C\C/C=C\CCCCC)CCCC(=O)OCCCCCCCC/C=C\C/C=C\CCCCC [Example 108] , which is 95.34

Kindly note the recorded Particle size for CCCCCCCCCCCCCCOC(=O)CCCCCCCN(CCCCO)CCCN(CCCCCCCC(=O)OCCCCCCCCCCCCCC)CCCCCCCC(=O)OCCCCCCCCCCCCCC , which is 82.47

Kindly note the recorded Particle size for CCCCCCCCCCCCCCOC(=O)CCCCCN(CCCCO)CCCN(CCCCCC(=O)OCCCCCCCCCCCCCC)CCCCCC(=O)OCCCCCCCCCCCCCC , which is 71.95

====

protocol-notes: In vitro transfection of cells with eGFP-mRNA lipid nanoparticle (LNP preparation), fluorescence imaging and flow cytometry
Assay type: cell-based, mouse
test-conditions: mouse, dc2.4 cells, 200 ng of mRNA per well, after 24 hours; read-out: Cell viability, %
Please note: viability at 24 h exactly at 80% is 0.0. Only values below 80% get 1.0.

Consider the worked cases shown below.
{"columns": ["item-smiles", "cat"],
 "data": [
  ["CCCCCCCCCCCCCCOC(=O)CCCCCCN(CCCO)CCCN(CCCCCCC(=O)OCCCCCCCCCCCCCC)CCCCCCC(=O)OCCCCCCCCCCCCCC", 1.0],
  ["CCCCCCCCCCCCCCOC(=O)CCCCCCCN(CCCCO)CCCN(CCCCCCCC(=O)OCCCCCCCCCCCCCC)CCCCCCCC(=O)OCCCCCCCCCCCCCC", 1.0],
  ["CCCCCCCCCCCOC(=O)CCCN(CCCCO)CCCN(CCCC(=O)OCCCCCCCCCCC)CCCC(=O)OCCCCCCCCCCC", 1.0],
  ["CCCCCCCCCCCCOC(=O)CCCCCCN(CCCCO)CCCN(CCCCCCC(=O)OCCCCCCCCCCCC)CCCCCCC(=O)OCCCCCCCCCCCC", 0.0],
  ["CCCCCCCCCCCOC(=O)CCCCCCCCCN(CCO)CCCN(CCCCCCCCCC(=O)OCCCCCCCCCCC)CCCCCCCCCC(=O)OCCCCCCCCCCC", 0.0]
]}

Check if viability at 24 h falls below 80% for CCCCCCCCCCCCCOC(=O)CCCN(CCCO)CCCN(CCCC(=O)OCCCCCCCCCCCCC)CCCC(=O)OCCCCCCCCCCCCC . 1.0

Check if viability at 24 h falls below 80% for CCCCCCCCC(CCCCCCCC)OC(=O)CCCCCCCN(CCO)CCCN(CCCCCCCC(=O)OC(CCCCCCCC)CCCCCCCC)CCCCCCCC(=O)OC(CCCCCCCC)CCCCCCCC . 0.0

Check if viability at 24 h falls below 80% for CCCCCCCCCCCOC(=O)CN(CCCCO)CCCN(CC(=O)OCCCCCCCCCCC)CC(=O)OCCCCCCCCCCC . 0.0

Check if viability at 24 h falls below 80% for CCCCCCCCCOC(=O)CCCCCCCN(CCO)CCCN(CCCCCCCC(=O)OCCCCCCCCC)CCCCCCCC(=O)OCCCCCCCCC . 1.0

Check if viability at 24 h falls below 80% for CCCCCCCCCCCCCOC(=O)CCCCN(CCCCO)CCCN(CCCCC(=O)OCCCCCCCCCCCCC)CCCCC(=O)OCCCCCCCCCCCCC . 0.0

Check if viability at 24 h falls below 80% for CCCCCCCCCCCCCOC(=O)CCCCCCN(CCO)CCCN(CCCCCCC(=O)OCCCCCCCCCCCCC)CCCCCCC(=O)OCCCCCCCCCCCCC . 0.0
